- run_description: Pharmacokinetic study in male ICR mice
- Assay type: in vivo
- experimental_parameters: mouse, plasma, po, 5 mg/kg
- Procedure: Specific procedures were referred to the reported method. ICR mice (n = 6) were fasted for 12 h before administration and remained fasting for 2 h. The animal room environment was controlled (target conditions: temperature 18 to 29 °C, relative humidity 30 to 70%). Temperature and relative humidity were monitored daily. An electronic time-controlled lighting system was used to provide a 12 h light/12 h dark cycle. Compound 20 was administered at doses of 5 mg/kg (po) and 1 mg/kg (iv). […]
value_kind: half-life (h)
One number for each entry, in h.

Task: Item under review: "CC(=O)c1cccn1CCc1ccc(C(=O)Nc2ccccc2N)cc1" . Reported half-life?
Result: 1.55

* * *

- run_description: Pharmacokinetic study in male ICR mice
- Assay type: in vivo
- experimental_parameters: mouse, plasma, po, 5 mg/kg
value_kind: Tmax (min)
Give bare numbers, in min.

Task: Item under review: CC(=O)c1cccn1CCc1ccc(C(=O)Nc2ccccc2N)cc1 [Compound 20] . Reported Tmax?
Result: 20

* * *

IC50 values recorded for HDAC1 (Homo sapiens)
Numbers only, in nM.

CC(=O)c1cccn1CCCCC(=O)NO [Compound 3b] ... 426

Parameter requested: IC50. Apply to each item below.
1. CCC(=O)c1cccn1CCCCCCC(=O)NO [Compound 5b]
2. CC(=O)c1cccn1Cc1cn(CCc2ccc(C(=O)Nc3ccccc3N)cc2)nn1 [Compound 19a]
3. O=C(CCCCCCn1cccc1)NO [Compound 5a, N-hydroxy-7-(1H-pyrrol-1-yl)heptanamide]
4. CC(=O)c1cccn1CCc1ccc(C(=O)Nc2ccccc2N)cc1 [Compound 20]
5. CC(=O)c1cccn1CCCCCCCC(=O)NO [Compound 3e]
6. O=C(CCCCCCn1ccc2cc(F)ccc21)NO [Compound 5i]
7. COC(=O)c1cccn1CCCCCCC(=O)NO [Compound 5d]

Result:
[54.2, 1100, 101, 441, 82.4, 4.48, 52]

* * *

- System: HL-60 (human leukemia cell line)
- run_description: CCK8 cell viability assay, HL-60
- Assay type: cell-based
- experimental_parameters: 72 h, read-out: Proliferation inhibition IC50 ± SD, HL-60
value_kind: pIC50
One number for each entry, as −log10 of the molar value.

O=C(CCCCCCn1cccc1)NO [Compound 5a, N-hydroxy-7-(1H-pyrrol-1-yl)heptanamide] ... 4.70
CC(=O)c1cccn1Cc1ccc(/C=C/C(=O)NO)cc1 ... 5.09
CC(=O)c1cccn1CCc1ccc(C(=O)NO)cc1 ... 4.55
COC(=O)c1cccn1CCCCCCC(=O)NO ... 4.66
O=C(CCCCCCn1cccc1C(=O)c1ccccc1)NO ... 5.12

Parameter requested: pIC50. Apply to each item below.
1. Nc1cc(F)ccc1NC(=O)c1ccc(CNC(=O)/C=C/c2cccnc2)cc1 [Chidamide, reference compound]
2. CC(=O)c1cccn1CCc1ccc(C(=O)Nc2ccccc2N)cc1
3. O=C(CCCCCCn1cccc1C(=O)C(F)(F)F)NO
4. CC(=O)c1cccn1Cc1cn(CCc2ccc(C(=O)Nc3ccccc3N)cc2)nn1 [Compound 19a]
5. CCC(=O)c1cccn1CCCCCCC(=O)NO

Result:
1: 6.30; 2: 5.33; 3: 5.07; 4: 5.08; 5: 4.89

* * *

- run_description: Pharmacokinetic study in male ICR mice
- Assay type: in vivo
- experimental_parameters: mouse, plasma, iv, 1 mg/kg, read-out: Vss
value_kind: Vd (L/kg)
Answers are plain numbers, in L/kg.

Task: Item under review: CC(=O)c1cccn1CCc1ccc(C(=O)Nc2ccccc2N)cc1 [Compound 20] . Reported Vd?
Result: 1.11

Data provenance: paper PMC11477621
